Target Entity: UniProt:P21396
Experiment Notes: In vitro inhibitory concentration against Monoamine oxidase A of rat brain homogenates; value ranges from 0.8-3.7
Assay type: tissue-based
Reported Metric: IC50

Q) Lookup: IC50 / UniProt:P21396 / C#CCN(C)C(C)Cc1cccc(OC(=O)N(C)C2CCCCC2)c1 (stereo unspecified)
A) 1.7 µM

====

Target Entity: Amine oxidase [flavin-containing] B (Rattus norvegicus)
Experiment Notes: In vitro inhibitory concentration against Monoamine oxidase B of rat brain homogenates; value ranges from 0.07-0.59
Type: tissue-based
Reported Metric: pIC50
The scale used: pIC50 is minus the common logarithm of the concentration in molar units.

Q) Name the reported pIC50 value associated with the molecule C#CCN(C)C(C)Cc1cccc(OC(=O)N(C)CC)c1 (stereo unspecified)
A) 7.00

====

Target Entity: Acetylcholinesterase (Homo sapiens, UniProt P22303)
Sequence (P22303 whole entry): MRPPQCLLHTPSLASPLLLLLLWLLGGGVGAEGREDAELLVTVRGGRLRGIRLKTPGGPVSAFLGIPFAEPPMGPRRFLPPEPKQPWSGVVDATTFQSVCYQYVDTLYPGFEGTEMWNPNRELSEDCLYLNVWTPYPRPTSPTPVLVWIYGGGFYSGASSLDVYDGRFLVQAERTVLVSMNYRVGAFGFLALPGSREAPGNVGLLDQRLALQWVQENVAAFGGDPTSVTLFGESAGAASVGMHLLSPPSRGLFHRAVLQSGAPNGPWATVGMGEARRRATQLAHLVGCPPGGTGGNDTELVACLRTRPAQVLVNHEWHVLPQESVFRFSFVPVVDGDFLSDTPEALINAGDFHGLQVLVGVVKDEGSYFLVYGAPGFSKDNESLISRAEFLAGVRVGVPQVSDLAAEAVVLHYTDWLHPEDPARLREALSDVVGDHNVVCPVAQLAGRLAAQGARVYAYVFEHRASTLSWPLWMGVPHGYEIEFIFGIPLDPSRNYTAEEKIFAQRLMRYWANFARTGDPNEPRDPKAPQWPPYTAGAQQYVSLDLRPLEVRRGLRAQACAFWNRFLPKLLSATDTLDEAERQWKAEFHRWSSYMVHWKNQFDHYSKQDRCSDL
Experiment Notes: In vitro inhibitory concentration against purified Acetylcholinesterase of human erythrocytes; value ranges from 4.6-25.8
Reported Metric: pIC50
Quick note: pIC50 means taking -log10 of the concentration in moles per liter.

Q) Field: pIC50 (Acetylcholinesterase (Homo sapiens, UniProt P22303)). Entry: C#CCN[C@H]1CCc2ccc(OC(=O)N(C)CCCC)cc21
A) 5.03

====

Target Entity: UniProt:P21396
Sequence (P21396 whole entry): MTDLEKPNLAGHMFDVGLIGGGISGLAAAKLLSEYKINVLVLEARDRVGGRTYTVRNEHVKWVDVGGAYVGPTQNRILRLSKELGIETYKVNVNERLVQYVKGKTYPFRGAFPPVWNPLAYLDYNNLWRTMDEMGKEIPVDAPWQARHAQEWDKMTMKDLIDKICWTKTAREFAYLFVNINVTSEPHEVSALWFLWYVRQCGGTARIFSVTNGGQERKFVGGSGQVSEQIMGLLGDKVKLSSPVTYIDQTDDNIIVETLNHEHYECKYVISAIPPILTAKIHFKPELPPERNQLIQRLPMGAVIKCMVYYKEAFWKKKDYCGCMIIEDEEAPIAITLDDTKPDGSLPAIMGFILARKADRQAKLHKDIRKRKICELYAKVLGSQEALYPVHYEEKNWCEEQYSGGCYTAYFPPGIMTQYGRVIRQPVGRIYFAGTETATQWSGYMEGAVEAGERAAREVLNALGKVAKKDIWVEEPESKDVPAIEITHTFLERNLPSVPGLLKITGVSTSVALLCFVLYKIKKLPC
Experiment Notes: In vitro inhibitory concentration against Monoamine oxidase A of rat brain homogenates; value ranges from 29-44
Assay type: tissue-based
Reported Metric: IC50 (µM)
All answers are understood in µM, so give the number only.

Q) Look up IC50: C#CCN(C)C1CCc2ccc(OC(=O)N(C)C)cc21 (stereo unspecified)
A) 36

====

Target Entity: Acetylcholinesterase (Homo sapiens)
Experiment Notes: In vitro inhibitory concentration against purified Acetylcholinesterase of human erythrocytes; value ranges from 0.49-0.58
Reported Metric: IC50 (nM)
The response must be a number in nM with no trailing unit.

Q) Look up IC50 for this compound: CCCCCCN(C)C(=O)Oc1ccc2c(c1)C(N)CC2 (stereo unspecified)
A) 530

====

Target Entity: UniProt:P21396
Experiment Notes: In vitro inhibitory concentration against Monoamine oxidase A of rat brain homogenates; value ranges from 5.6-19.6
Assay type: tissue-based
Reported Metric: IC50 (µM)
Return type: number; implicit unit µM.

Q) Requested read-out: IC50. Entry: CN(C)C(=O)Oc1cccc2c1CCC2N(C)C (stereo unspecified)
A) 10

====

Target Entity: UniProtKB P21396
Experiment Notes: In vitro inhibitory concentration against Monoamine oxidase A of rat brain homogenates; value ranges from 8-43
Type: tissue-based
Reported Metric: IC50
State the value with its unit after it.

Q) Look at this compound and give its reported IC50. C#CCN(C)C(C)Cc1cccc(OC(=O)N(C)CCCCCC)c1 (stereo unspecified)
A) 20 µM

====

Target Entity: Amine oxidase [flavin-containing] B (Rattus norvegicus, UniProt P19643)
Sequence (P19643 whole entry): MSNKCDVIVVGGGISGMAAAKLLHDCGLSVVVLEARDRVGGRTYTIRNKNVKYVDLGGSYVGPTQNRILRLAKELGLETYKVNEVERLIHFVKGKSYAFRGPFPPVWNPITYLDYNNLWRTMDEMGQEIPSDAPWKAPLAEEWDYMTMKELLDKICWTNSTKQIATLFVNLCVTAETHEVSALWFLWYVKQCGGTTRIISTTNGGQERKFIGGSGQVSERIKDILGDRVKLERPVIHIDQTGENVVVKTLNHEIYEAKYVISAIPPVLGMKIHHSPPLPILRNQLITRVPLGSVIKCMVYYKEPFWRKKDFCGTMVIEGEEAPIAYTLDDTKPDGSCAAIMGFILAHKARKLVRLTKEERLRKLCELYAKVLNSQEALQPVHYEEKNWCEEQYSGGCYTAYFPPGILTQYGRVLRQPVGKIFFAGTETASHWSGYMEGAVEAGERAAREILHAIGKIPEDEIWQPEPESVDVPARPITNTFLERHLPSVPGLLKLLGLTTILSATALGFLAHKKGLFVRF
Experiment Notes: In vitro inhibitory concentration against Monoamine oxidase B of rat brain homogenates; value ranges from 80.-92
Reported Metric: IC50 (µM)
I only need the number, in µM, no unit after it.

Q) Hello, I am looking for reported IC50 with Amine oxidase [flavin-containing] B (Rattus norvegicus, UniProt P19643) for C#CCNC1CCc2c(OC(=O)N(C)C)cccc21 (stereo unspecified) . Could you help?
A) 86

====

Target Entity: Butyrylcholinesterase (Equus caballus)
Sequence (Q9N1N9 whole entry): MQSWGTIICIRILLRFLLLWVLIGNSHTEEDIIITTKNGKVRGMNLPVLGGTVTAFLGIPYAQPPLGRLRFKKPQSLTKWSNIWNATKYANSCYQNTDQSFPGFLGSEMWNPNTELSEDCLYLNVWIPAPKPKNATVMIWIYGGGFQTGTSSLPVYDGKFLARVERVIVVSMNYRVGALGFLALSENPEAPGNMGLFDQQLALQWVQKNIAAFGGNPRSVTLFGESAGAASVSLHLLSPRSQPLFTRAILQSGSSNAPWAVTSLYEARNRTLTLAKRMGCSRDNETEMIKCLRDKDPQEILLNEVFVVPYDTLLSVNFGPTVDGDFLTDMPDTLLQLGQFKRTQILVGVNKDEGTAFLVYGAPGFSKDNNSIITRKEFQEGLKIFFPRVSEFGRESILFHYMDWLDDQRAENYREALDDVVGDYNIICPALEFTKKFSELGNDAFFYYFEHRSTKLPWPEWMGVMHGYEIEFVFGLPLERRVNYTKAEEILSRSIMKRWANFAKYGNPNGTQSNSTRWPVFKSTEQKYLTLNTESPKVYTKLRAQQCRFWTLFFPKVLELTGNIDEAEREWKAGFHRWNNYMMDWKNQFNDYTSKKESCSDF
Experiment Notes: In vitro inhibitory concentration against Butyrylcholinesterase of horse serum; value ranges from 0.28-0.30
Reported Metric: pIC50
The quantity pIC50 is defined as the negative base-10 logarithm of the molar concentration.

Q) Any idea what its pIC50 is? The compound is C#CCNC1CCc2ccc(OC(=O)N(C)CC)cc2C1 (stereo unspecified)
A) 6.54

====

Target Entity: Amine oxidase [flavin-containing] B (Rattus norvegicus, UniProt P19643)
Experiment Notes: In vitro inhibitory concentration against Monoamine oxidase B of rat brain homogenates; value ranges from 200-1400
Type: tissue-based
Reported Metric: pIC50
For clarity, pIC50 is expressed as the negative log10 of concentration in mol/L.

Q) I have this compound here, C#CCNC1CCc2ccc(OC(=O)N(C)C)cc21 (stereo unspecified) , and I need its recorded pIC50.
A) 3.28

====

Target Entity: Amine oxidase [flavin-containing] A (Rattus norvegicus, UniProt P21396)
Experiment Notes: In vitro inhibitory concentration against Monoamine oxidase A of rat brain homogenates; value ranges from 1.3-5.6
Assay type: tissue-based
Reported Metric: IC50 (nM)
The figure you give is taken to be in nM; do not add the unit.

Q) I would be grateful if you could share the reported IC50 for C#CCNCCc1cccc(OC(=O)N(C)C)c1 .
A) 2700

====

Target Entity: Amine oxidase [flavin-containing] B (Rattus norvegicus, UniProt P19643)
Sequence (P19643 whole entry): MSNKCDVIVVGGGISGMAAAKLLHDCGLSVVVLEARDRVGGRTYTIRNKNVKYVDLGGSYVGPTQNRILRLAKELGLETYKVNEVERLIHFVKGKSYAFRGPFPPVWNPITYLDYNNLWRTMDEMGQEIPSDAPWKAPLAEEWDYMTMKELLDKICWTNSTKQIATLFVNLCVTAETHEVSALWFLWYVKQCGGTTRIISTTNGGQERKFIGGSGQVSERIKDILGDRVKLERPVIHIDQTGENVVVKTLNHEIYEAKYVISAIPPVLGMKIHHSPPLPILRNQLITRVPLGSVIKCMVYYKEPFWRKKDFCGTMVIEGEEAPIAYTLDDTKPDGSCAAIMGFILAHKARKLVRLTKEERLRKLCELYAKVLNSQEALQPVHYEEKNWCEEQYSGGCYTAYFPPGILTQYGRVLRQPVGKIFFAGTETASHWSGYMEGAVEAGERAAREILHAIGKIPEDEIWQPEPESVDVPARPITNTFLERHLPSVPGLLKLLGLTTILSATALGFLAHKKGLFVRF
Experiment Notes: In vitro inhibitory concentration against Monoamine oxidase B of rat brain homogenates; value ranges from 2.8-8.3
Assay type: tissue-based
Reported Metric: pIC50
Please note pIC50 is a logarithmic value: minus log10 of concentration in mol/L. Answer with that number alone.

Q) If you can, please state the reported pIC50 value of C#CCN(C)C(C)Cc1cccc(O)c1 (stereo unspecified) .
A) 5.32

====

Target Entity: Amine oxidase [flavin-containing] A (Rattus norvegicus)
Experiment Notes: In vitro inhibitory concentration against Monoamine oxidase A of rat brain homogenates; value ranges from 560-1000
Assay type: tissue-based
Reported Metric: pIC50
Bear in mind: pIC50 is minus log10 of a mol/L concentration; give just that figure.

Q) Fill blank: measured pIC50 of the molecule C#CCNC1CCc2ccc(OC(=O)N(C)C)cc21 (stereo unspecified) is ____.
A) 3.12

====

Target Entity: Butyrylcholinesterase (Equus caballus)
Experiment Notes: In vitro inhibitory concentration against Butyrylcholinesterase of horse serum; value ranges from 0.009-0.024
Reported Metric: pIC50
On this scale, pIC50 is minus log10 of a concentration expressed in M (mol/L).

Q) Missing value: pIC50, Butyrylcholinesterase (Equus caballus), entry CN(C)C(=O)Oc1cccc2c1CCC2N (stereo unspecified) . Fill in?
A) 7.85
